Exercise: for every item that follows, state its recorded normalized RNA/DNA level without ligand (log10).
B1: library; a variant is named by its letters at N, in order (parent)
chain: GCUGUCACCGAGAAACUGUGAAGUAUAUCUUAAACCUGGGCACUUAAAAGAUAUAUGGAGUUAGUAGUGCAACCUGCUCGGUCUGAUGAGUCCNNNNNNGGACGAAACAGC

variants of: B1; test: normalized RNA/DNA level without ligand (relative to sTRSVctl = 100) (log10 (% of sTRSVctl)); HEK293T; ligand: cyclic di-GMP (c-di-GMP-II aptamer); higher = less ribozyme self-cleavage, higher mRNA level; conditions: reporter: mCherry (pCS4076), ligand present: no
API note: the answer field is a bare number with no unit suffix.

Recorded result, CUAAAG , normalized RNA/DNA level without ligand (log10): 1.64

The variant UUCGGU showed normalized RNA/DNA level without ligand (log10) equal to 1.75

Recorded result, CGGGGU , normalized RNA/DNA level without ligand (log10): 1.72

normalized RNA/DNA level without ligand (log10) reading for AAGAUC : 1.6

Entry CAUCGA — recorded normalized RNA/DNA level without ligand (log10) = 1.64

Entry under test: AUGCCA . Its normalized RNA/DNA level without ligand (log10) was 1.7

Item: CUAGCC | normalized RNA/DNA level without ligand (log10): 1.77

The reported value for UGAUUC in terms of normalized RNA/DNA level without ligand (log10) is 1.71

Record UGGCGC . Reported normalized RNA/DNA level without ligand (log10): 1.82

The variant listed as AUGCGA has a reported normalized RNA/DNA level without ligand (log10) of 1.49

Recorded result, CCUUUG , normalized RNA/DNA level without ligand (log10): 1.59

response.value for CGUUAU (field: normalized RNA/DNA level without ligand (log10)) = 1.42

Per the records, this variant ( UCAUCG ) has normalized RNA/DNA level without ligand (log10) equal to 1.79

So for UCCCUG , the logged normalized RNA/DNA level without ligand (log10) turned out to be 1.78

Note to self: normalized RNA/DNA level without ligand (log10) recorded for GGUUCU was 1.66

The variant CUAUCC showed normalized RNA/DNA level without ligand (log10) equal to 1.77

// field: normalized RNA/DNA level without ligand (log10); key: UCCAUA ; value = 1.53

So for CUUAUU , the logged normalized RNA/DNA level without ligand (log10) turned out to be 1.54
